// data source = paper PMC1277809

# test target: T1, LexA (DinR) wild type (Bacillus subtilis, UniProt P31080 1-205)
# T1 sequence: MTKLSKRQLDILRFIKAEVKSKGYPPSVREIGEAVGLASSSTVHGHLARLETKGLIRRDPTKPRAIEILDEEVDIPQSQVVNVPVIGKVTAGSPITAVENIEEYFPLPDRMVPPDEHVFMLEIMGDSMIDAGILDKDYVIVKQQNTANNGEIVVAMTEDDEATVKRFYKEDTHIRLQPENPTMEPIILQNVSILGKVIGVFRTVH
# assay procedure: competition EMSA
quantity measured: Ki (nM)

>  <binder>
recA op T5C,A6T (dsDNA) DNA 1: GGGGGGCGAACTTGCGTTCGCCCCCC DNA 2: GGGGGGCGAACGCAAGTTCGCCCCCC

>  <value unit>
nM

>  <number>
0.49

$$$$
